# cond: 423.15 K; Liquid; Surface laser light scattering (SLLS)
assay_readout: viscosity (mPa·s)

(P) CCCCCC [hexane]
(Q) CCCCCCCC [octane]
(R) CCCCCCCCCC [decane]
(S) CCCCCCCCCCCCCCCC [hexadecane]
Lookup: List the compounds shown above again, sorted by falling viscosity values. # format: label list in the order the request specifies
Found: S, R, Q, P

----------
# cond: 448.15 K, Surface laser light scattering (SLLS)
assay_readout: surface tension liquid-gas (mN/m)

See these solved cases before continuing.
CCCCCC ... 3.75
CCCCCCCCCC ... 10.29

(I) CCCCCCCC
(II) CCCCCCCCCCCCCCCC
Lookup: Would you let me know which has the greater surface tension liquid-gas value, I or II ? Respond using the label that marks the chosen record.
Found: II
(II: 15.09 mN/m, I: 7.88 mN/m)

----------
# cond: 293.15 K, Surface laser light scattering (SLLS)
assay_readout: surface tension liquid-gas (mN/m)

CCCCCCCCCC ... 23.05
CCCCCCCC ... 21.31

(P) CCCCCCCCCCCCCCCC
(Q) CCCCCC
Lookup: Kindly identify the item with the lower surface tension liquid-gas figure among these two: P and Q Respond using the label that marks the chosen record.
Found: Q
(Q: 18.22 mN/m, P: 27.38 mN/m)

----------
# cond: 473.15 K, Surface laser light scattering (SLLS)
assay_readout: surface tension liquid-gas (mN/m)

See these solved cases before continuing.
CCCCCCCCCCCCCCCC ... 13.26
CCCCCC ... 1.89

(A) CCCCCCCC
(B) CCCCCCCCCC
Lookup: Would you let me know which has the greater surface tension liquid-gas value, A or B ? Respond using the label that marks the chosen record.
Found: B
(B: 8.52 mN/m, A: 5.82 mN/m)

----------
# cond: 323.15 K; Liquid; Surface laser light scattering (SLLS)
assay_readout: viscosity (mPa·s)

(1) CCCCCCCCCCCCCCCC
(2) CCCCCCCCCC
(3) CCCCCCCC
(4) CCCCCC
Lookup: List the molecules shown above again, sorted by falling viscosity values. # format: label list in the order the request specifies
Found: 1, 2, 3, 4

----------
# cond: 323.15 K, Surface laser light scattering (SLLS)
assay_readout: surface tension liquid-gas (mN/m)

CCCCCCCCCCCCCCCC [hexadecane] ... 24.28
CCCCCC [hexane] ... 15.31
CCCCCCCC [octane] ... 18.64
CCCCCCCCCC [decane] ... 20.61

----------
# cond: 348.15 K, Surface laser light scattering (SLLS)
assay_readout: surface tension liquid-gas (mN/m)

See these solved cases before continuing.
CCCCCCCCCC ... 18.75
CCCCCCCC ... 16.37

(1) CCCCCC
(2) CCCCCCCCCCCCCCCC
Lookup: Would you let me know which has the greater surface tension liquid-gas value, 1 or 2 ? Respond using the label that marks the chosen record.
Found: 2

----------
# cond: 313.15 K, Surface laser light scattering (SLLS)
assay_readout: surface tension liquid-gas (mN/m)

CCCCCCCC [octane] ... 19.45
CCCCCCCCCC [decane] ... 21.43

(a) CCCCCC [hexane]
(b) CCCCCCCCCCCCCCCC [hexadecane]
Lookup: Kindly identify the item with the lower surface tension liquid-gas figure among these two: a and b Respond using the label that marks the chosen record.
Found: a

----------
# cond: 313.15 K; Liquid; Surface laser light scattering (SLLS)
assay_readout: viscosity (mPa·s)

(I) CCCCCC [hexane]
(II) CCCCCCCC [octane]
(III) CCCCCCCCCCCCCCCC [hexadecane]
(IV) CCCCCCCCCC [decane]
Lookup: List the compounds shown above again, sorted by falling viscosity values. # format: label list in the order the request specifies
Found: III, IV, II, I
(III: 2.261 mPa·s, IV: 0.6924 mPa·s, II: 0.432 mPa·s, I: 0.2546 mPa·s)

----------
# cond: 303.15 K; Liquid; Surface laser light scattering (SLLS)
assay_readout: viscosity (mPa·s)

CCCCCCCC ... 0.4828
CCCCCC ... 0.2809

(I) CCCCCCCCCC
(II) CCCCCCCCCCCCCCCC
Lookup: Kindly identify the item with the lower viscosity figure among these two: I and II Respond using the label that marks the chosen record.
Found: I
(I: 0.79 mPa·s, II: 2.772 mPa·s)

----------
# cond: 373.15 K; Liquid; Surface laser light scattering (SLLS)
assay_readout: viscosity (mPa·s)

(a) CCCCCCCCCCCCCCCC
(b) CCCCCCCCCC
(c) CCCCCCCC
(d) CCCCCC
Lookup: List the compounds shown above again, sorted by falling viscosity values. # format: label list in the order the request specifies
Found: a, b, c, d
(a: 0.8927 mPa·s, b: 0.3614 mPa·s, c: 0.2487 mPa·s, d: 0.155 mPa·s)

----------
# cond: 398.15 K; Liquid; Surface laser light scattering (SLLS)
assay_readout: viscosity (mPa·s)

CCCCCCCC ... 0.2028

(I) CCCCCCCCCC
(II) CCCCCCCCCCCCCCCC
(III) CCCCCC
Lookup: Please order the records by their reported viscosity, lowest number first. # format: label list in the order the request specifies
Found: III, I, II
(III: 0.1268 mPa·s, I: 0.2895 mPa·s, II: 0.6788 mPa·s)

----------
# cond: 473.15 K; Liquid; Surface laser light scattering (SLLS)
assay_readout: viscosity (mPa·s)

(P) CCCCCCCC [octane]
(Q) CCCCCC [hexane]
(R) CCCCCCCCCC [decane]
(S) CCCCCCCCCCCCCCCC [hexadecane]
Lookup: List the molecules shown above again, sorted by falling viscosity values. # format: label list in the order the request specifies
Found: S, R, P, Q
(S: 0.344 mPa·s, R: 0.1677 mPa·s, P: 0.1168 mPa·s, Q: 0.0655 mPa·s)

----------
# cond: 348.15 K; Liquid; Surface laser light scattering (SLLS)
assay_readout: viscosity (mPa·s)

(A) CCCCCCCC
(B) CCCCCCCCCC
Lookup: Would you let me know which has the greater viscosity value, A or B ? Respond using the label that marks the chosen record.
Found: B
(B: 0.4636 mPa·s, A: 0.3079 mPa·s)

(1) CCCCCCCCCCCCCCCC
(2) CCCCCC
Lookup: Would you let me know which has the greater viscosity value, 1 or 2 ? Respond using the label that marks the chosen record.
Found: 1
(1: 1.236 mPa·s, 2: 0.1905 mPa·s)

----------
# cond: 398.15 K, Surface laser light scattering (SLLS)
assay_readout: surface tension liquid-gas (mN/m)

CCCCCCCCCC ... 14.38

(P) CCCCCCCCCCCCCCCC
(Q) CCCCCC
(R) CCCCCCCC
Lookup: Please order the records by their reported surface tension liquid-gas, lowest number first. # format: label list in the order the request specifies
Found: Q, R, P
(Q: 8.21 mN/m, R: 11.9 mN/m, P: 18.54 mN/m)

----------
# cond: 373.15 K, Surface laser light scattering (SLLS)
assay_readout: surface tension liquid-gas (mN/m)

CCCCCCCCCC ... 16.52
CCCCCC ... 10.53

(A) CCCCCCCC
(B) CCCCCCCCCCCCCCCC
Lookup: Kindly identify the item with the lower surface tension liquid-gas figure among these two: A and B Respond using the label that marks the chosen record.
Found: A
(A: 14 mN/m, B: 20.31 mN/m)

----------
# cond: 303.15 K, Surface laser light scattering (SLLS)
assay_readout: surface tension liquid-gas (mN/m)

CCCCCCCCCCCCCCCC [hexadecane] ... 26.6
CCCCCC [hexane] ... 17.34
CCCCCCCCCC [decane] ... 22.39
CCCCCCCC [octane] ... 20.53

----------
# cond: 293.15 K; Liquid; Surface laser light scattering (SLLS)
assay_readout: viscosity (mPa·s)

CCCCCCCC ... 0.5523

(I) CCCCCC
(II) CCCCCCCCCC
Lookup: Would you let me know which has the greater viscosity value, I or II ? Respond using the label that marks the chosen record.
Found: II
